tested on: A549 NSCLC; test: NCI tumour cell line growth inhibition, 48 h
measured-endpoint: GI50

1. COc1cccc(/C(COc2ccc3c(c2)oc(=O)c2ccccc23)=N\O)c1	16.9 µM
2. NC1CCCCC1N.O=C([O-])c1cc(S(=O)(=O)Nc2cc(S(=O)(=O)[O-])cc3cc(S(=O)(=O)[O-])cc(O)c23)ccc1[O-].[Pt+4]	61.6 µM
3. Clc1nc(Cl)c2ncn(C/C=C\COc3cccc(OC/C=C\Cn4cnc5c(Cl)nc(Cl)nc54)c3)c2n1	> 100 µM
4. Cc1cc(Nc2nc(-c3ccc(F)cc3)nc3ccccc23)n[nH]1	1.77 µM
5. CS(=O)(=O)CCN(CC#N)Cc1ccc(-c2ccc3ncnc(Nc4ccc(OCc5cccc(F)c5)c(Cl)c4)c3c2)o1	14.6 µM
6. C/C(=C1\SC(=NCc2cccs2)NC1=O)c1ccc2ncccc2c1	12.2 µM
7. [C-]#[O+].[C-]#[O+].[C-]#[O+].[C-]#[O+].[O-]C(c1ccccc1[PH+]1OC(C(F)(F)F)(C(F)(F)F)c2ccccc21)(C(F)(F)F)C(F)(F)F.[Re] (stereo not given)	4.56 µM
8. N[C@H]1C[C@@H]1c1ccc(-c2cccc(O)c2)cc1	50.6 µM
9. COc1cccc2c1C(=O)c1c(O)c3c(c(O)c1C2=O)C[C@@](O)(C(C)=O)C[C@@H]3O[C@H]1C[C@H](N)[C@H](O)[C@H](C)O1	0.0427 µM
10. O=C(/C=C/c1cccs1)c1ccc(Cl)cc1Cl	17.3 µM
